biological target: Mu-type opioid receptor (Homo sapiens) (UniProt P35372); assay: Ratio of potencies against Mu receptor to that of kappa receptor of monkey; details: Cercopithecidae; target entry is the homologue from another species
Sequence (P35372 whole entry): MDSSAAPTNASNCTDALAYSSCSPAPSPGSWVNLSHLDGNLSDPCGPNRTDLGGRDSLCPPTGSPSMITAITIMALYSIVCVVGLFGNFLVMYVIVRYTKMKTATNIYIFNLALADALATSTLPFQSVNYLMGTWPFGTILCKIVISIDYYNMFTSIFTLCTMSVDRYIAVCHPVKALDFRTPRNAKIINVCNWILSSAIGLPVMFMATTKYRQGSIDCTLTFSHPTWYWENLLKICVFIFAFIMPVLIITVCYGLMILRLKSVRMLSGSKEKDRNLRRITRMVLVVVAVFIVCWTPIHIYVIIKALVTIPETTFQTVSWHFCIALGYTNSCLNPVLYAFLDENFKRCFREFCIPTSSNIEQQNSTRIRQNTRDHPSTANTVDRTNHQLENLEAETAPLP
Known Ratio of a selection of compounds
In your answer, state the number alone without any accompanying words.

What Ratio appears in the records for this compound with Mu-type opioid receptor (Homo sapiens) (UniProt P35372)? CCCCCCCCN1CC[C@]2(C)c3cc(O)ccc3CC1[C@@H]2C
1.3

* * *

molecular target: Mu-type opioid receptor (Rattus norvegicus); test: Ratio of potencies of (+) and (-) enantiomers against Mu receptors in Rats
Measured Property: Ratio
In your answer, state the number alone without any accompanying words.

Some solved cases for reference:
• CCCN1CC[C@]2(C)c3cc(O)ccc3CC1[C@@H]2C = 687
• CCCCCCN1CC[C@]2(C)c3cc(O)ccc3CC1[C@@H]2C = 169
• CCCCCCCN1CC[C@]2(C)c3cc(O)ccc3CC1[C@@H]2C = 28
• CCCCCCCCN1CC[C@]2(C)c3cc(O)ccc3CC1[C@@H]2C = 17
• CCCCCCCCCN1CC[C@]2(C)c3cc(O)ccc3CC1[C@@H]2C = 9.1
• CCCCN1CC[C@]2(C)c3cc(O)ccc3CC1[C@@H]2C = 221

So what's the measured Ratio for this one? CCCCCCCCCCN1CC[C@]2(C)c3cc(O)ccc3CC1[C@@H]2C
9.1

So what's the measured Ratio for this one? C[C@H]1C2Cc3ccc(O)cc3[C@@]1(C)CCN2C
452

Source listed as ChEMBL document CHEMBL1127360.
